Biological target: Aldehyde dehydrogenase 1A1 (Homo sapiens) (UniProt P00352)
Sequence (P00352 whole entry, looked up): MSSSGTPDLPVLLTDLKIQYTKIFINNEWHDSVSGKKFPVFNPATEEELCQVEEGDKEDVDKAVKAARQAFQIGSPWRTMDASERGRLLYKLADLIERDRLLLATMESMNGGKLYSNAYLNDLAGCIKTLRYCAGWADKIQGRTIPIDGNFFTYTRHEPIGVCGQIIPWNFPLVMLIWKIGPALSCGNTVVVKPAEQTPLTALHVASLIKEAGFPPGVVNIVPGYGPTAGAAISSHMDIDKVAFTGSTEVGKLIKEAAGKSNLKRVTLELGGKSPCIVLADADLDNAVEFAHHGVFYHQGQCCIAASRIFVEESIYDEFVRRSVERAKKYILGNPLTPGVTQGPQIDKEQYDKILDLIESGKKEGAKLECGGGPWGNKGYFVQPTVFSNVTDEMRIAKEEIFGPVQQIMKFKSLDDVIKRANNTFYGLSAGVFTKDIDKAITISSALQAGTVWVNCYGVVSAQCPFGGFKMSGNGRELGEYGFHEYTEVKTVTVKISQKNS
Assay: qHTS Assay for Inhibitors of Aldehyde Dehydrogenase 1 (ALDH1A1)
Conditions: Purified ALDH1A1, NADH fluorescence, propionaldehyde substrate; series mostly up to 75.3 µM
In all, about 220,000 compounds went through this assay and about 16,000 (7.3%) were called active. Roughly 25% stayed inconclusive and do not appear here. The call rests on the fitted dose curve; in most records, active means well fitted inhibition curve with a large enough effect (not every such curve was filed as active); inconclusive means small, poorly fitted or top-dose-only effect, or another doubt; inactive means no such curve, though single readings can be large or run the other way. Many of the other results were omitted from the sample, so actives are more common in it than they were.
Can you answer with just one of these options? 1 for active, -1 for inactive

// query I'd appreciate the recorded outcome for NC(=O)C[n+]1cccc(C(N)=O)c1 from this test.
// result -1

// query What was the test verdict on COc1cccc(NC(=O)c2nn(C34CC5CC(CC(C5)C3)C4)cc2[N+](=O)[O-])c1 ?
// result 1

// query So what was the verdict on CCOC(=O)c1ccc(COC(=O)c2cc(=O)[nH]c3ccccc23)o1 in this test?
// result -1

// query How did this test come out for COC(c1ccccc1)c1nnc(CCC(=O)N2CCN(CCOc3ccccc3)CC2)o1 (centres undefined) ?
// result -1

// query For this compound, state the assay outcome: O=C(CCN1C(=O)C2C3C=CC(C3)C2C1=O)Oc1ccc2ccccc2c1 (centres undefined)
// result -1

// query Tell me the assay call for CCCn1c(N)c(C(=O)CSc2nc3ccccc3c(=O)n2-c2ccc(OC)cc2)c(=O)[nH]c1=O please.
// result -1

// query What did the test return for CC1(C)CC(CC(=O)O)C(=O)O1 (centres undefined) ?
// result -1

// query What outcome does the record of this test show for COCCN(C(=S)Nc1ccccc1OC)C1CCN(C(C)C)CC1 ?
// result -1

// query Record request — test call for COc1cccc(NC(=O)c2ccc(Cn3cc([N+](=O)[O-])cn3)o2)c1
// result 1

// query Hi team, can someone confirm the assay call for CCc1nnc(NC(=O)CCN(c2ccc(C)cc2)S(=O)(=O)c2ccccc2)s1 ?
// result -1

// query Which outcome did this test record for the compound Cc1cccc(-n2cc(CN3CCN(C(=O)c4ncn[nH]4)CC3)c(-c3cccc(F)c3)n2)c1 ?
// result -1

// query What classification did COc1ccc(CCNC(=O)C(=O)NCc2ccccc2C)cc1OC end up with in this test?
// result -1

// query Write down the call the test reported for this compound. Item: COc1ccc(CCNC(=O)COC(=O)/C=C/c2cccs2)cc1OC
// result -1

// query For COc1ccc(CN(C)C(=S)Nc2ccc(Cl)cc2Cl)cc1 , what call appears in the results of this test?
// result -1

// query What call does the record list for COc1ccc(CCNC(=O)CC2SC(=Nc3cc(C)cc(C)c3)NC2=O)cc1OC (centres undefined) ?
// result 1

// query Call for entry CCC(C)NC(=O)CN(C1CCCCC1)S(C)(=O)=O (centres undefined) :
// result -1

// query Could you check what this test reported for CSc1sc(C(=O)NNC(=O)c2ccc(Cl)cc2)c2c1C=CCC2 ?
// result -1

// query Outcome logged for CCN(CC)S(=O)(=O)c1ccc(N2CCOCC2)c(C(=O)O)c1 in this assay:
// result -1

// query For this compound, state the assay outcome: CC(=O)NCCC(=O)Nc1cc(S(=O)(=O)N2CCOCC2)ccc1N1CCOCC1
// result -1

// query Which outcome was entered for the compound CCOC(=O)CSc1nnc(CNc2nc(-c3ccccc3)cs2)n1C in this test?
// result -1

// query What outcome does the record of this test show for Cc1cc(NC(=O)COn2nnc3ccccc32)no1 ?
// result -1

// query Returns: the outcome recorded for CCCCOc1ccc(C(=O)NCc2ccco2)cc1 in this assay.
// result -1

// query // outcome(item) with item = O=C(NCc1ccco1)c1ccc(Cn2c(=O)c3sccc3n(Cc3ccc(F)cc3)c2=O)cc1
// result -1

// query What did the test return for CCOc1ccc(Nc2nc(Cc3nnc(SCC(=O)NC4CCCC4)n3C)cs2)cc1 ?
// result -1

// query Which outcome did this test record for the compound Cn1cnnc1Sc1ccc(CN2CCN(C3CCCC3)C(CCO)C2)o1 (centres undefined) ?
// result -1

// query Status in this test for CCNC(=O)N1c2ccccc2Sc2ccccc21 ?
// result -1

// query Name the outcome recorded for CC(C)OCCCNC(=O)c1ccc(C2SCC(=O)N2Cc2ccco2)cc1 (centres undefined) in the assay.
// result 1

// query Which outcome did this test record for the compound NC1=C([N+](=O)[O-])C(c2ccccc2)C2=C(CCCC2=O)O1 (centres undefined) ?
// result -1

// query Per the assay record, what outcome was assigned to O=C(COC(=O)c1ccccc1F)Nc1cc(S(=O)(=O)N2CCOCC2)ccc1N1CCCC1 ?
// result -1

// query Hi, sorry to bother you, what did the test record for O=C(COC(=O)Cc1ccc(F)cc1)Nc1cc(S(=O)(=O)N2CCOCC2)ccc1N1CCCC1 ?
// result -1

// query Dear all, I need the recorded test outcome for CCOC(=O)C1(C)NC(c2ccco2)C2C(=O)N(c3ccccc3)C(=O)C21 (centres undefined) , thank you.
// result -1

// query Recorded call for O=C(CCCN1C(=O)C2C3C=CC(C3)C2C1=O)N1CCN(c2ccccc2)CC1 (centres undefined) ?
// result 1

// query Call for entry Cc1nnsc1C(=O)NCc1c(F)cccc1Cl :
// result -1

// query Kindly provide the recorded test outcome for the following compound: N#CCCN1CCN(S(=O)(=O)c2ccc(S(=O)(=O)NC3CC3)cc2)CC1
// result -1

====

Target: Aldehyde dehydrogenase 1A1 (Homo sapiens) (UniProt P00352)
Assay: qHTS Assay for Inhibitors of Aldehyde Dehydrogenase 1 (ALDH1A1)
Conditions: Purified ALDH1A1, NADH fluorescence, propionaldehyde substrate; series mostly up to 75.3 µM
Among all 220,000 compounds or so, about 16,000 (7.3%) were called active. Another 25% or so got no clear call; they are omitted. Calls follow the shape of the dose curve; as a rule, active = well fitted inhibition curve with a large enough effect (not every such curve was filed as active); inconclusive = small, poorly fitted or top-dose-only effect, or another doubt; inactive = no such curve, though single readings can be large or run the other way. For the sample, actives were picked, then their nearest neighbours and some compounds at random.
Choose one outcome from this list and give only that: active, inactive

// query // param item: C#Cc1ccc([C@@H]2C=C(C(=O)O)O[C@H](OCCCCO)C2)cc1 ; yields the recorded call
// result inactive

// query Please state the recorded outcome for this molecule: NS(=O)(=O)c1ccc(CNC(=O)c2ccc(Cl)cc2[N+](=O)[O-])cc1
// result inactive

// query Each molecule tested received a call. Report the one for COc1cc(COCC(O)CN2CCN(Cc3ccc4c(c3)OCO4)CC2)cc(OC)c1OC (centres undefined) .
// result inactive

// query What was the test verdict on O=C(O)CCSc1nnc(-c2ccccc2)n1-c1ccccc1 ?
// result inactive

// query Recorded test call requested for N/C(=N\OC(=O)c1ccc([N+](=O)[O-])cc1)c1ccccn1
// result inactive

// query State the result this test recorded for COc1cc(OC)c2c(-c3cccc(-c4cccc(N)c4)c3)cc(=O)oc2c1 .
// result inactive

// query Entry O=C(CN1C(=O)/C(=C\c2ccc(C(F)(F)F)cc2)Sc2ccccc21)NCc1ccco1 : call = ?
// result inactive

// query Field: outcome | Entry: COc1ccc2[nH]cc(CCNc3ncnc4ccc(-c5ccc(C(=O)N(C)C)cc5)cc34)c2c1
// result active

// query What is the recorded call for this molecule in the test? COc1ccc(/C=C(\NC(=O)c2ccc(OCC(C)C)cc2)C(=O)OCc2ccco2)cc1
// result inactive

// query For COc1ccc(-c2nnc(SCC(=O)c3ccco3)n2-c2ccccc2)cc1 , which call appears in the assay record?
// result inactive

// query What did the test return for COc1ccc(-c2nn(-c3ccccc3)cc2/C=C\C(=O)N2CCOCC2)cc1[N+](=O)[O-] ?
// result inactive

// query Call for entry CCCOC1CCCN(Cc2cn(C)nc2-c2ccccc2F)C1 (centres undefined) :
// result inactive

// query Please indicate how the test categorized COC(=O)c1cccnc1NC(=S)NC(C)C .
// result inactive

// query Answer briefly: the call reported for Fc1ccc(Cn2nnnc2C(c2cccs2)N2CCCCCC2)cc1 (centres undefined) in this assay.
// result active

// query # lookup: test call for COc1ccc2[nH]cc(CCNc3ncnc4ccc(-c5ccccc5CN(C)C)cc34)c2c1
// result inactive

// query Recorded test call requested for Cc1ccc(S(=O)(=O)N(C)C)cc1NC(=O)c1ccccc1Br
// result inactive

// query Per the records of this test, what outcome belongs to Cc1cc([N+](=O)[O-])nn1Cc1ccc(F)cc1 ?
// result inactive

// query Check the results log: what was the call for CC1(C)CC(=O)C(C2c3ccccc3S(=O)(=O)c3ccccc32)C(=O)C1 ?
// result inactive

// query Record lookup: outcome of this test for O=C(CCC1CCCN(Cc2ccc(O)c(Cl)c2)C1)NCc1ccccc1F (centres undefined) ?
// result inactive

// query # outcome recorded in this test, key = CCn1c(SCC(=O)Nc2nccs2)nnc1-c1ccco1
// result inactive

// query Outcome logged for Cc1ccc2[nH]c(C)c(CCNC(=O)NC3CCCCC3)c2c1 in this assay:
// result inactive

// query # fetch the recorded call for COc1ccc(C(=O)NC(=O)CSc2nnc(-c3ccco3)n2-c2ccccc2)cc1 here
// result active

// query // outcome(item) with item = Cc1ccc(S(=O)(=O)N(C)C)cc1NC(=O)/C=C/c1cccs1
// result active

// query What outcome does the record of this test show for CCN(CC)CCCNC(=O)Cn1cnc2sc(C)c(S(=O)(=O)N3CCN(c4ncccn4)CC3)c2c1=O ?
// result inactive

// query Per the records of this test, what outcome belongs to CN(C)S(=O)(=O)c1cccc(NC(=O)COC(=O)/C=C/c2cccs2)c1 ?
// result inactive

// query // return assay outcome for NC(=O)COC(=O)c1cc(S(=O)(=O)N2CCN(c3ccccc3)CC2)ccc1Cl
// result inactive

// query Just curious, what result did COc1ccc(/C(C)=N/NC(=O)CCC(=O)Nc2ccc(Cl)cc2Cl)c(OC)c1 get here?
// result inactive

// query Outcome? CC(CC(=O)O)C(=O)c1ccc(Cl)c([N+](=O)[O-])c1 (centres undefined)
// result inactive

// query Please state the recorded outcome for this molecule: Cc1ccc(NC(=O)c2oc(=O)c3ccccc3c2-c2ccccc2)c(C)c1
// result inactive

// query Tell me the recorded outcome of this test for NS(=O)(=O)c1ccc(N2C(=O)C3C4CC(C(Br)C4Br)C3C2=O)cc1 (centres undefined) .
// result inactive

// query What is the recorded call for this molecule in the test? C=CCOC(=O)C1=C(C)NC(SCC(=O)OCC)=C(C#N)C1c1ccc(C)cc1 (centres undefined)
// result inactive

// query Any idea what this test logged for O=c1c(O)c(Br)ccc2c(Br)c(O)c(O)c(O)c12 ?
// result active

// query Fill in: this test's call for OCCC1CN(Cc2ccc(Oc3ncccn3)cc2)CCN1CCc1ccccc1 (centres undefined) is ___
// result inactive

// query Identify the outcome logged in this assay for the molecule shown: COc1ccc(N(CC(=O)Nc2ccc(C)cc2C)S(=O)(=O)c2ccccc2[N+](=O)[O-])c(OC)c1
// result inactive

// query Please indicate how the test categorized N#Cc1ccc(C(c2nnnn2CCc2ccccc2)N2CCCCCC2)cc1 (centres undefined) .
// result inactive

// query What did this assay record as the result for Cc1ccc(NC(=S)NC(=O)c2ccc(-c3ccccc3)cc2)c(C)c1 ?
// result active

// query Call for entry C=CCC1CCC(=O)N2CCCC12 (centres undefined) :
// result inactive

// query What did the test return for COc1ccc(C(=O)N/N=c2\oc3ccccc3cc2C(N)=O)cc1 ?
// result inactive

// query So what was the verdict on COc1ccc(OC)c(NC(=O)CN(Cc2ccc(Cl)cc2)S(C)(=O)=O)c1 in this test?
// result inactive
